- Test system: KM12
- procedure_details: NCI tumour cell line growth inhibition, 48 h
Activity calls are given as the source filed them. Cut-off read from the data, not from the text of the source: active = GI50 up to about 1.1 µM and inactive = higher.
Just give me one of these, please: class 1 (active), class 0 (inactive)

Take a look at these entries with their results.
**Q:** Hi, sorry to bother you, what did the test record for `O=c1[nH]c2c(C(F)(F)F)c(Cl)c(-c3ccccc3)nc2o1` ?
**A:** class 0

**Q:** Another compound to check: `O=Cc1c[nH]c2c(=O)[nH]cnc12`
**A:** class 0

**Q:** Another compound to check: `Oc1cccnc1CN1CCCCC1`
**A:** class 0

New cases:
**Q:** Hi, sorry to bother you, what did the test record for CC(=O)OC[C@@H](COC(=O)/C=C/c1ccc(O)cc1)OC1OC(CO)C(O)C(O)C1O (some centres not stated) ?
**A:** class 0

**Q:** Another compound to check: `NNC(=O)CC(=O)Nc1ccc(Cl)cc1`
**A:** class 0

**Q:** Another compound to check: `O=S(=O)(Nc1nccs1)c1ccc(Nc2nc(-c3cccs3)nc3ccc(I)cc23)cc1`
**A:** class 0

**Q:** Another compound to check: COc1ccccc1NC(=O)CC(=O)N1N=C(C)C(/N=N/c2ccc(C(=O)O)cc2)C1=O (configuration not stated)
**A:** class 0

**Q:** Another compound to check: CC(=O)OC1OC(c2ccoc2)C[C@@]12C1CCC3O[C@]3(C)[C@]1(C)[C@H](OC(C)=O)[C@H](OC(C)=O)[C@H]2C (some centres not stated)
**A:** class 0

**Q:** Another compound to check: `CCN(CC)CCNc1ccc2ncn3c4c(OC)ccc(OC)c4c(=O)c1c23`
**A:** class 0

**Q:** Another compound to check: COP1(=O)OCc2cnccc2O1 (configuration not stated)
**A:** class 0

**Q:** Another compound to check: `CCC(=O)Nc1cccc(NC(=O)c2c(Cl)c(Cl)c(Cl)c(Cl)c2-c2nc3ccccc3[nH]2)c1`
**A:** class 1

**Q:** Another compound to check: COCN1C(=O)C2CC(/C=C/C(N)=O)=CN2C(=O)c2ccccc21 (configuration not stated)
**A:** class 0

**Q:** Another compound to check: `Cc1ccc2cccc(-c3cccc4ccccc34)c2n1`
**A:** class 0

**Q:** Another compound to check: `CCN(CC)/[N+]([O-])=N/OCOC(C)=O`
**A:** class 0

**Q:** Another compound to check: `N/C(CCSCCSCC/C(N)=N\O)=N\O`
**A:** class 0

**Q:** Another compound to check: `Cc1ccc(NCCN(C)C)c2c(=O)c3cc(O)ccc3oc12`
**A:** class 0

**Q:** Another compound to check: `Cc1cc(C)nc(NS(=O)(=O)c2ccc(NC(=O)c3cccc4cc5ccccc5nc34)cc2)n1`
**A:** class 0

**Q:** Another compound to check: `NC(=O)COc1ccc(Br)cc1Br`
**A:** class 0

**Q:** Another compound to check: C#CC(O)/C=C/C(O)CCCC(O)CC#CC(O)C#CC(O)CCCC(O)/C=C/CCCCCC(=O)CCCCCCCCCCCCCC(O)C(O)C#CC(=O)O (configuration not stated)
**A:** class 0

**Q:** Another compound to check: `Cc1nc2c(=O)n(-c3ccccc3)c3ccccc3c2o1`
**A:** class 0

**Q:** Another compound to check: `COc1cn2c(cc1=O)COc1ccc(-c3ccccc3)cc1-2`
**A:** class 0

**Q:** Another compound to check: CC(NS(=O)(=O)c1ccc(Cl)cc1)C(=O)O (configuration not stated)
**A:** class 0

* * *

- System: HCT-15
GI50 values by entry

Known results for molecules:
**Q:** GET /values?readout=GI50&item= `NC(=O)C/C=C/CC(N)=O`
**A:** > 100 µM

**Q:** Another molecule to check: `COc1ccc2c(=O)c3ccoc3[nH]c2c1`
**A:** > 100 µM

**Q:** Another molecule to check: `O=c1/c(=C/c2ccco2)sc2nc3ccccc3n12`
**A:** > 10 µM

**Q:** Another molecule to check: `O=C(O)c1ccc(Nc2nc3ccc(C(F)(F)F)cc3nc2-c2ccccc2)cc1`
**A:** 18.6 µM

**Q:** Another molecule to check: Nc1nc(SCCNC(=O)CCc2ccc(O)c(I)c2)nc2c1ncn2C1OC(CO)C(O)C1O (stereo unspecified)
**A:** > 100 µM

New cases:
**Q:** GET /values?readout=GI50&item= `CCCCc1ccc(N2C(=O)c3cccnc3S2(=O)=O)cc1`
**A:** > 100 µM

**Q:** Another molecule to check: `COc1ccc(OC)c(/C=C/c2cnnc3ccccc23)c1`
**A:** 1.96 µM

**Q:** Another molecule to check: CC1=C2CC3=C(C)C(=O)O[C@H]3C[C@@H](C)[C@@H]2CC1 [AMERICANOLIDE D]
**A:** > 100 µM

**Q:** Another molecule to check: C[C@]12CC(c3ccccc3O1)C(C#N)C(=O)N2 (stereo partly specified)
**A:** > 100 µM

**Q:** Another molecule to check: `CCCCCCc1cc2c(C)c(C)c(=O)oc2cc1OCCCOc1cc2oc(=O)c(C)c(C)c2cc1CCCCCC`
**A:** > 100 µM

* * *

- Tested on: SW-620
- procedure_details: NCI tumour cell line growth inhibition, 48 h
The source made the active and inactive calls. Rule as the data show it: active = GI50 up to about 1.1 µM and inactive = higher.
Just give me one of these, please: 1 for active, 0 for inactive

Take a look at these entries with their results.
**Q:** Hi, sorry to bother you, what did the test record for `N=C(N)C1=C(O)NC(=O)N(C2CCCCC2)C1` ?
**A:** 0

**Q:** Another molecule to check: CCC(C)N1CN(c2ccccc2)C2(CCN(CCCSc3ccc(F)cc3)CC2)C1=O (centres undefined)
**A:** 0

**Q:** Another molecule to check: `O=c1[nH]c2ccccc2nc1CBr`
**A:** 0

**Q:** Another molecule to check: CC(=S)NC1C(Oc2ccc3c(C)cc(=O)oc3c2)OC(CO)C(O)C1O (centres undefined)
**A:** 0

**Q:** Another molecule to check: CC(C)(C)OC(=O)C(C#N)C(=O)c1ccc(C(=O)O)[nH]1 (centres undefined)
**A:** 0

**Q:** Another molecule to check: `O=C1c2cscc2C(=O)C1(O)O`
**A:** 0

**Q:** Another molecule to check: [N-]=[N+]=NC1C(O)C(CO)OC1n1cnc2c(N)ncnc21 (centres undefined)
**A:** 0

**Q:** Another molecule to check: `COc1cn2c(cc1=O)COc1ccc(-c3ccccc3)cc1-2`
**A:** 0

**Q:** Another molecule to check: `N/C(CCSCCSCC/C(N)=N\O)=N\O`
**A:** 0

**Q:** Another molecule to check: CC(=O)[C@@H]1[C@@H](OC(=O)CCC(C)COC2OC(CO)C(O)C(O)C2O)C[C@H]2[C@@H]3CC=C4C[C@@H](OC5OC(CO)C(OC6OC(C)C(O)C(O)C6O)C(O)C5OC5OC(C)C(O)C(O)C5O)CC[C@]4(C)[C@H]3CC[C@]12C (some centres undefined)
**A:** 0

New cases:
**Q:** Hi, sorry to bother you, what did the test record for CC(=O)OC1COC(Nn2c(=O)[nH]c3ccccc3c2=O)C(OC(C)=O)C1OC(C)=O (centres undefined) ?
**A:** 0

**Q:** Another molecule to check: `O=C(N(O)c1ccccc1Cl)C(O)(c1ccccc1)c1ccccc1`
**A:** 0

**Q:** Another molecule to check: `N#Cc1cccc(-n2[nH]c(=O)ccc2=O)c1`
**A:** 0

* * *

- Tested on: NCI-H23
- procedure_details: NCI tumour cell line growth inhibition, 48 h
Calls of active or inactive are those of the source. Cut-off read from the data, not from the text of the source: active = GI50 up to about 1.1 µM and inactive = higher.
GI50 values by entry

**Q:** GET /values?readout=GI50&item= `Cc1cc(/N=C/c2ccc(F)cc2)n(-c2ccccc2)n1`
**A:** 82.2 µM (inactive)

New cases:
**Q:** GET /values?readout=GI50&item= CC(=O)N1CCOC12N=NC(C)(C)O2 (centres undefined)
**A:** > 100 µM (inactive)

**Q:** Another molecule to check: `C/N=c1/ssc(=S)n1C(C)C`
**A:** 12.2 µM (inactive)

**Q:** Another molecule to check: `Cn1cc(NC(=O)c2cc(NC(=O)CCCCCCC(=O)Nc3cc(C(=O)Nc4cc(C(=O)NCCC(=N)N)n(C)c4)n(C)c3)cn2C)cc1C(=O)NCCC(=N)N`
**A:** 3.91 µM (inactive)

* * *

- System: Malme-3M
- procedure_details: NCI tumour cell line growth inhibition, 48 h
Activity calls are given as the source filed them. No stated cut-off is given here; in the data, active = GI50 up to about 1.1 µM and inactive = higher.
Just give me one of these, please: yes (1) (active), no (0) (inactive)

Take a look at these entries with their results.
**Q:** Hi, sorry to bother you, what did the test record for `Cn1c(=O)c2c(nc(-n3nc(-c4ccc(Cl)cc4)cc3N)n2C)n(C)c1=O` ?
**A:** no (0)

**Q:** Another compound to check: `Nc1nc(Cl)cc(NCC2(O)CCC2)n1`
**A:** no (0)

**Q:** Another compound to check: CC[C@@]1(OC(=O)C(N)CCCCN)C(=O)OCc2c1cc1n(c2=O)Cc2cc3ccccc3nc2-1 (stereo not given in full)
**A:** yes (1)

**Q:** Another compound to check: `NS(=O)(=O)c1ccc(/N=N/c2cnc(O)c(O)c2)cc1`
**A:** no (0)

**Q:** Another compound to check: COc1ccccc1NC(=O)CC(=O)N1N=C(C)C(/N=N/c2ccc(C(=O)O)cc2)C1=O (stereo not given)
**A:** no (0)

**Q:** Another compound to check: C#CC(O)/C=C/C(O)CCCC(O)CC#CC(O)C#CC(O)CCCC(O)/C=C/CCCCCC(=O)CCCCCCCCCCCCCC(O)C(O)C#CC(=O)O (stereo not given)
**A:** no (0)

New cases:
**Q:** Hi, sorry to bother you, what did the test record for `O=C(O)CSc1ccccc1C(=O)O` ?
**A:** no (0)

**Q:** Another compound to check: CC(C)C(C)C(C)(C)P(C)(C)=O (stereo not given)
**A:** no (0)
